B1: SMOC2 (parent)
chain: DCAGSPQKPLCASDGRTFLSRCEF

Variants of: B1
measurementDescription: protein stability index of a GFP-peptide fusion (GPS, HEK-293T) (PSI 1-6); higher = more stable;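 note: lentivirally expressed fusions sorted by FACS into six bins by GFP to DsRed ratio, PSI derived from sequencing read proportions per bin multiplied by bin number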
conditionSet: c terminus: a fixed tail appended
Rule: 1 for protein stability index not less than 2, -1 for anything less.

Please review the entries below; each comes with its answer.
>>> category("E23Q")
1
>>> category("E23R")
1

Say whether S20G shows protein stability index of 2 or more.
1

Reported protein stability index at or above 2? A12D
1

Check the entry L10H : does protein stability index equal or exceed 2?
1
